Test system: Collagen-induced thrombocyte aggregation (platelet-rich plasma)
measurement.protocol: Collagen-induced thrombocyte aggregation in vitro (rat)
Assay type: cell-based, rat (male Sprague Dawley SIV 50)
stated.conditions: rat PRP 400 000/μl, 37° C., collagen; Arith. M±S.D.; read-out: IC50 value, collagen-induced thrombocyte aggregation
readout.kind: IC50 (µM)
Supply the numeric figure in µM, leaving out any unit text.

Use the examples below as a reference point.
CCOC(=O)C1=C(C)Nc2ccn(CCCN(C)C)c(=O)c2C1c1cccc([N+](=O)[O-])c1 (centres unmarked) | 160
CCOC(=O)C1=C(C)Nc2ccn(CCCN3CCCCC3)c(=O)c2C1c1cccc([N+](=O)[O-])c1 (centres unmarked) | 70
CCOC(=O)C1=C(C)Nc2ccn(CCCN3CCCCC3)c(=O)c2C1c1ccccc1Cl (centres unmarked) | 160

What IC50 appears in the records for this compound with Collagen-induced thrombocyte aggregation (platelet-rich plasma)? CCOC(=O)C1=C(C)Nc2ccn(CCCN(C)C)c(=O)c2C1c1cccc(Cl)c1 (centres unmarked)
160

What IC50 appears in the records for this compound with Collagen-induced thrombocyte aggregation (platelet-rich plasma)? CCOC(=O)C1=C(C)Nc2ccn(CCCN3CCCCC3)c(=O)c2C1c1cccc(Cl)c1 (centres unmarked)
60
